Test system: MOLT-4 leukemia
Test Summary: NCI-60 one-dose screen, 48 h
Conditions: 10 µM unless noted
About 83,000 compounds went through this panel and 20% of them were active in at least one assay; those are over-represented in the sample as a whole. Calls of active or inactive are those of the source. The calls were made as follows: active = growth percent below 10; inactive = the rest.
Classes to choose from: y for active, n for inactive

- Compound: "CC(C)Cc1nc(Nc2ccccc2)[nH]c(=O)c1C#N"
  Category: "n"
- Compound: "CN1C(=O)/C(=C/c2ccc(C(=O)Nc3ncc(Cc4cccc(C(F)(F)F)c4)s3)cc2)SC1=S"
  Category: "n"
- Compound: "O=c1oc2c(cnc3ccccc32)cc1-c1cccc(Cl)c1"
  Category: "n"
- Compound: "N#CC1=C(N)Oc2c(sc3c(F)cccc23)C1c1ccc([N+](=O)[O-])cc1 (stereo not given)"
  Category: "y"
- Compound: "C/C(=N\\Nc1ccccc1)c1ccc(NC2=CC(=O)c3ccccc3C2=O)cc1"
  Category: "n"

Exam item: Identify the outcome logged in this assay for the compound shown: "COc1cc(C[C@H]2COc3cc(O)cc(O)c3C2=O)ccc1O"
Marked response: n

Exam item: Identify the outcome logged in this assay for the compound shown: "CN1C(=O)/C(=C/c2ccc(C(=O)Nc3ncc(Cc4cc(Cl)ccc4Cl)s3)cc2)SC1=S"
Marked response: n

Exam item: Identify the outcome logged in this assay for the compound shown: "ClC(Cl)c1nc(-c2ccccc2)n2nc(-c3ccccc3)cc2n1"
Marked response: n

Exam item: Identify the outcome logged in this assay for the compound shown: "Fc1cccc(-c2nc(-c3c[nH]c4ncccc34)cs2)c1"
Marked response: n

Exam item: Identify the outcome logged in this assay for the compound shown: "Nc1nc(C(=O)N/N=C/c2ccc(F)cc2)nn1-c1ccc(S(N)(=O)=O)cc1"
Marked response: n
